Taken from paper PMC9250296.

Would you kindly list half-life for each of these molecules?
Test: HeLa cell lysate stability assay
Details: human
Numbered stars: 1 amine (or outer) side, 2 acyl side, 3 side chain; on linkers, the order of the positions; unused ones are H or OH. Bridge positions count the residues as written; N and C are the ends. Square brackets hold non-standard residues; d marks the D form. Peptide text beside a SMILES is read from it. * marks the point of attachment. X1 = O=C([C@@H]1C[C@@H](SCc2cccc(C[*:3])c2)CN1[*:1])[*:2]; X2 = C=CCS[C@@H]1C[C@@H](C(=O)[*:2])N([*:1])C1; Ac3c = NC1(C(=O)O)CC1; Allyl = C=CC*
Numbers only, in h.

[
  {
    "molecule": "CC(=O)N[C@H](C(=O)N[C@@H](Cc1c[nH]c2ccccc12)C(=O)N[C@H](Cc1ccc(O)cc1)C(=O)N[C@H]1CSCc2cccc(c2)CS[C@@H]2C[C@@H](C(=O)NCC(=O)N[C@@H](Cc3c[nH]c4ccccc34)C(=O)N[C@H](C(N)=O)[C@@H](C)O)N(C2)C(=O)CNC(=O)C2(CC2)NC(=O)[C@H]2CCCN2C(=O)[C@H]([C@@H](C)O)NC1=O)[C@@H](C)O [Δ4MP-m] (Ac-TW[dY]CT[dP][Ac3c]G[X1]GWT-NH2; thioether 4-9)",
    "half-life (h)": 21
  }
]

For the next question, use this molecule.
Kindly indicate its recorded half-life. Item: C=CCSC[C@H](NC(=O)[C@@H](Cc1ccc(O)cc1)NC(=O)[C@H](Cc1c[nH]c2ccccc12)NC(=O)[C@@H](NC(C)=O)[C@@H](C)O)C(=O)N[C@H](C(=O)N1CCC[C@@H]1C(=O)NC1(C(=O)NCC(=O)N2C[C@H](SCC=C)C[C@H]2C(=O)NCC(=O)N[C@@H](Cc2c[nH]c3ccccc23)C(=O)N[C@H](C(N)=O)[C@@H](C)O)CC1)[C@@H](C)O [Δ4MP-a] (Ac-TW[dY]C(Allyl)T[dP][Ac3c]G[X2]GWT-NH2; N-terminus and C-terminus assumed) 30

###

Could you please report measured remaining at 4 h for the items listed next?
Assay: HeLa cell lysate stability assay
Details: human
Numbered stars: 1 amine (or outer) side, 2 acyl side, 3 side chain; on linkers, the order of the positions; unused ones are H or OH. Bridge positions count the residues as written; N and C are the ends. Square brackets hold non-standard residues; d marks the D form. Peptide text beside a SMILES is read from it. * marks the point of attachment. X1 = O=C([C@@H]1C[C@@H](SCc2cccc(C[*:3])c2)CN1[*:1])[*:2]; X2 = C=CCS[C@@H]1C[C@@H](C(=O)[*:2])N([*:1])C1; Ac3c = NC1(C(=O)O)CC1; Allyl = C=CC*

[
  {
    "molecule": "C[C@@H](O)[C@H](NC(=O)[C@H](Cc1c[nH]c2ccccc12)NC(=O)CNC(=O)[C@@H]1C[C@@H]2CN1C(=O)CNC(=O)C1(CC1)NC(=O)[C@H]1CCCN1C(=O)[C@H]([C@@H](C)O)NC(=O)[C@@H](NC(=O)[C@@H](Cc1ccc(O)cc1)NC(=O)[C@H](Cc1c[nH]c3ccccc13)NC(=O)[C@@H](NC(=O)[C@@H](N)CCCCN)[C@@H](C)O)CSCc1cccc(c1)CS2)C(=O)N[C@@H](CCC(=O)O)C(=O)O [4MP-m] (H-KTW[dY]CT[dP][Ac3c]G[X1]GWTE-OH; thioether 5-10; N-terminus and C-terminus assumed)",
    "recorded value": "~7%"
  }
]

Turning to the following molecule.
Provide remaining at 4 h value for the following molecule: C=CCSC[C@H](NC(=O)[C@@H](Cc1ccc(O)cc1)NC(=O)[C@H](Cc1c[nH]c2ccccc12)NC(=O)[C@@H](NC(=O)[C@@H](N)CCCCN)[C@@H](C)O)C(=O)N[C@H](C(=O)N1CCC[C@@H]1C(=O)NC1(C(=O)NCC(=O)N2C[C@H](SCC=C)C[C@H]2C(=O)NCC(=O)N[C@@H](Cc2c[nH]c3ccccc23)C(=O)N[C@H](C(=O)N[C@@H](CCC(=O)O)C(=O)O)[C@@H](C)O)CC1)[C@@H](C)O [4MP-a] (H-KTW[dY]C(Allyl)T[dP][Ac3c]G[X2]GWTE-OH; N-terminus and C-terminus assumed) ~22%
